biological target: Vascular endothelial growth factor receptor 3 (Homo sapiens); conditions: at 1 µM
Binned residual activity; ranges: bin 1: < 1%; bin 2: ≥ 1% and < 60%; bin 3: ≥ 60%

> print(dat)
                                   compound  class.label
1   O=C1Nc2ccccc2/C1=C\c1c(Cl)[nH]c2ccccc12        bin 3
2  c1ccc(-c2cnc(Nc3ccc(OCCN4CCCC4)cc3)s2)cc1        bin 2
3  O=C(c1cc2cc(O)ccc2[nH]1)c1cc2cc(O)ccc2[nH]1        bin 2
4      O=C(Nc1ccc(Cl)cc1)c1ccccc1NCc1ccncc1        bin 1
5  O=C1NC(=O)C(c2c[nH]c3ccccc23)=C1c1c[nH]c2ccccc12        bin 2
6        CCCCc1c(-c2ccc(O)cc2)[nH]c2nccnc12        bin 2

Which residual activity category applies to O=c1cc(N2CCOCC2)oc2c1ccc1ccccc12 here?
bin 3

Which residual activity category applies to O=C(NC(NC(=S)Nc1ccc(F)c([N+](=O)[O-])c1)C(Cl)(Cl)Cl)C(c1ccccc1)c1ccccc1 (configuration not stated) here?
bin 3

* * *

Biological target: Serine/threonine-protein kinase Chk1 (Homo sapiens)
Sequence (whole entry): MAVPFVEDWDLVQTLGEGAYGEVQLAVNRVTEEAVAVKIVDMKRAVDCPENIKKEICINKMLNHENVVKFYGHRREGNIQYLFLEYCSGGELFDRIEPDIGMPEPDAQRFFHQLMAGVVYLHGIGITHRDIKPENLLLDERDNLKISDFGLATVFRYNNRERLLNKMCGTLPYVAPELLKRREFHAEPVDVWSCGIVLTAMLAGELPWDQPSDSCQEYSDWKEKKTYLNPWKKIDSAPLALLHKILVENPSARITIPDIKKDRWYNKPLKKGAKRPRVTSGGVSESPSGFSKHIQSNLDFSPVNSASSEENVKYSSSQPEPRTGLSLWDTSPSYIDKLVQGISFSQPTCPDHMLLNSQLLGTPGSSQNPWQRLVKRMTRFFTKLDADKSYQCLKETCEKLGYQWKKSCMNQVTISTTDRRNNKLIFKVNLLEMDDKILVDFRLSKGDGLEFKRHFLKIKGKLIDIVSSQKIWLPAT
Details: at 10 µM
measured.endpoint: residual activity (%)
One number for each entry, in %.

> print(dat)
                      smiles.representation                              study.system  reported.result
1                   Nc1ncnc2c1cnn2-c1ccccc1  Serine/threonine-protein kinase Chk1 (Homo sapiens)               83
2  Nc1ncnc2c1c(-c1ccc(Oc3ccccc3)cc1)cn2C1CCCC1  Serine/threonine-protein kinase Chk1 (Homo sapiens)              113

# batch size: 4; output residual activity per entry
1. COc1ccc2c(c1)c(C1=C(c3c[nH]c4ccccc34)C(=O)NC1=O)cn2CCCN(C)C
2. Nc1ncnc2[nH]nc(Nc3ccc(F)cc3)c12
3. CN(C)S(=O)(=O)c1ccc2c(c1)/C(=C/c1cc3c([nH]1)CCCC3)C(=O)N2
4. O=C1NC(=O)C(c2c[nH]c3ccccc23)=C1c1c[nH]c2ccccc12

1: 41; 2: 60; 3: 73; 4: 53

* * *

molecular target: Serine/threonine-protein kinase pim-2 (Homo sapiens) (UniProt Q9P1W9); conditions: at 1 µM
Sequence (Q9P1W9 whole entry, looked up): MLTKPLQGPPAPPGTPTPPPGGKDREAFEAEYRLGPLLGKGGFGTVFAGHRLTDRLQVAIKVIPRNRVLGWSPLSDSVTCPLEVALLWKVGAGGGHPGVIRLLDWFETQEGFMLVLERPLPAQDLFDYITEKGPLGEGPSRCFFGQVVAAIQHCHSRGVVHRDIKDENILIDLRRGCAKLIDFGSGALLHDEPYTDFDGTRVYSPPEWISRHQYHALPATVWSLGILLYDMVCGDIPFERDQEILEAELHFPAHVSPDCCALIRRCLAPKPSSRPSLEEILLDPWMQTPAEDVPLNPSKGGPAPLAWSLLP
For each record, write down the corresponding residual activity.
Report the figure along with its unit, number first.

> print(dat)
                      smiles.representation  measured.endpoint  reported.result
1  O=C(c1cc2cc(O)ccc2[nH]1)c1cc2cc(O)ccc2[nH]1  residual activity              80%
2    O=C1Cc2c([nH]c3ccc(Br)cc23)-c2ccccc2N1  residual activity             100%

For CC(C)c1nn(-c2c(Cl)cccc2Cl)c2nc(Cc3ccc(OCCO)cc3)[nH]c(=O)c12 , write its residual activity.
131%

* * *

target: Serine/threonine-protein kinase VRK2 (Homo sapiens) (UniProt Q86Y07); conditions: at 10 µM
Sequence (Q86Y07 whole entry): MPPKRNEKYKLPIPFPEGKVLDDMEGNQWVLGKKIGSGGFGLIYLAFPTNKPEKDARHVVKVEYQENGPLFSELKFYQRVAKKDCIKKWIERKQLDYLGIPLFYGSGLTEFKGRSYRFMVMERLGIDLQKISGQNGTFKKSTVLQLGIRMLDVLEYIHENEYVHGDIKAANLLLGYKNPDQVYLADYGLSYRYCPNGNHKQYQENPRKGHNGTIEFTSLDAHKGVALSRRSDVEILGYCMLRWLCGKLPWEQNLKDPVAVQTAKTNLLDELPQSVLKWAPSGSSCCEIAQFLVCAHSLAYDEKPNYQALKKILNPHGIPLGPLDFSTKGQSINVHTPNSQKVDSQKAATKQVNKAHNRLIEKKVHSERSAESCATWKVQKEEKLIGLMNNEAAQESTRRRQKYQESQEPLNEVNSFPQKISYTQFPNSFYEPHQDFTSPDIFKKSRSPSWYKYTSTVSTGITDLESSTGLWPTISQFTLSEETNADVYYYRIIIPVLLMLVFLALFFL
Description: Millipore: Percentage of residual kinase activity of VRK2 at 10uM relative to control. Control inhibitor: Phosphoric acid* at 0.3uM. Buffer: 8 mM MOPS pH 7.0, 0.2 mM EDTA
For each record, write down the corresponding residual activity.
One number for each entry, in %.

Record excerpt, results attached:
> print(dat)
                      smiles.representation  reported.result
1  COc1cc2nccc(Oc3ccc(NC(=S)NC(=O)c4ccccc4C)cc3)c2cc1OC               90
2   O=C1Nc2ccccc2/C1=C\c1c(Cl)[nH]c2ccccc12               28

For O=C(c1ccccc1)c1ccc(N2CCOCC2)cc1O , write its residual activity.
94

* * *

target: Tyrosine-protein kinase Yes (Homo sapiens) (UniProt P07947); conditions: at 10 µM
Sequence (P07947 2-543 limits assumed): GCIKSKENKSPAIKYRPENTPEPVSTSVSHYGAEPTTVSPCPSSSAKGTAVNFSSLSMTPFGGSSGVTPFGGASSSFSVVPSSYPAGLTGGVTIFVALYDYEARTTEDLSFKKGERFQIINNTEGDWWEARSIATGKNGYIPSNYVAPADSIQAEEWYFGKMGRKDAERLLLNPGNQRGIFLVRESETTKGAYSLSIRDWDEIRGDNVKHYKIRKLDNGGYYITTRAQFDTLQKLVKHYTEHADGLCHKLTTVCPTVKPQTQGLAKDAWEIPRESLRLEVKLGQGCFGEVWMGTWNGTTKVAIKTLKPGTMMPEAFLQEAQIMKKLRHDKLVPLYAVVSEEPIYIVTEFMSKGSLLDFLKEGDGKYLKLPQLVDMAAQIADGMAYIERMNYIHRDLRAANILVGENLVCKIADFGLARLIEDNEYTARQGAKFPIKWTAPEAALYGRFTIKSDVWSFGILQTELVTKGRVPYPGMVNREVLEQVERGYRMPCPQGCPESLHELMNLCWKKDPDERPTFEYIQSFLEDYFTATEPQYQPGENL
measured.endpoint: residual activity (%)
Give bare numbers, in %.

Record excerpt, results attached:
> print(dat)
                                   molecule  measured.endpoint  reported.result
1  CN(C)S(=O)(=O)c1ccc2c(c1)/C(=C/c1cc3c([nH]1)CCCC3)C(=O)N2  residual activity                6
2  O=C1Cc2c([nH]c3ccc([N+](=O)[O-])cc23)-c2ccccc2N1  residual activity               20
3  O=C1Nc2ccc(Cl)cc2/C1=C/c1cc(Cl)c(O)c(Cl)c1  residual activity               54
4  CC(C)[C@H](CO)Nc1nc(Nc2cc(N)cc(Cl)c2)c2ncn(C(C)C)c2n1  residual activity                0
5  NCCNc1ncc(C(N)=O)c(Nc2cccc(C(F)(F)F)c2)n1  residual activity                3

# batch size: 7; output residual activity per entry
1. CSc1nc(-c2ccc(F)cc2)c(-c2ccnc(NC(C)c3ccccc3)c2)[nH]1 (stereo unspecified)
2. Nc1nc(Nc2ccc(S(N)(=O)=O)cc2)nn1C(=O)c1c(F)cccc1F
3. COc1ccc(CNC(=O)Nc2ncc([N+](=O)[O-])s2)cc1
4. O=C(c1cc2cc(O)ccc2[nH]1)c1cc2cc(O)ccc2[nH]1
5. COc1cc2nccc(Oc3ccc(NC(=O)Nc4cc(C)on4)c(Cl)c3)c2cc1OC
6. O=C1NC(=O)C(c2c[nH]c3ccccc23)=C1c1c[nH]c2ccccc12
7. Nc1ncnc2c1cnn2-c1ccccc1

63
4
13
0
6
36
92

# batch size: 2; output residual activity per entry
1. c1ccc(-c2cnc(Nc3ccc(OCCN4CCCC4)cc3)s2)cc1
2. COc1cc2c(cc1OC)-c1n[nH]c(Nc3cccc(F)c3)c1C2

[3, 1]

* * *

For each record, write down the corresponding residual activity.
biological target: Tyrosine-protein kinase TXK (Homo sapiens); conditions: at 1 µM
Answers are plain numbers, in %.

Record excerpt, results attached:
> print(dat)
                                   compound  unit  reported.result
1          O=C(c1ccccc1)c1ccc(N2CCOCC2)cc1O     %               82
2  CSc1nc(-c2ccc(F)cc2)c(-c2ccnc(NC(C)c3ccccc3)c2)[nH]1 (stereo not given)     %               86
3                 Cn1sc(=O)n(Cc2ccccc2)c1=O     %               83
4  CC(C)c1nn(-c2c(Cl)cccc2Cl)c2nc(Cc3ccc(OCCO)cc3)[nH]c(=O)c12     %               96

Please find the next compound below.
For CCCC(=O)Oc1ccc2[nH]c(C(=O)c3cc4ccccc4[nH]3)cc2c1 , write its residual activity.
102

* * *

For each record, write down the corresponding residual activity.
target: Mitogen-activated protein kinase kinase kinase 9 (Homo sapiens) (UniProt P80192); conditions: at 10 µM
Sequence (P80192 whole entry, looked up): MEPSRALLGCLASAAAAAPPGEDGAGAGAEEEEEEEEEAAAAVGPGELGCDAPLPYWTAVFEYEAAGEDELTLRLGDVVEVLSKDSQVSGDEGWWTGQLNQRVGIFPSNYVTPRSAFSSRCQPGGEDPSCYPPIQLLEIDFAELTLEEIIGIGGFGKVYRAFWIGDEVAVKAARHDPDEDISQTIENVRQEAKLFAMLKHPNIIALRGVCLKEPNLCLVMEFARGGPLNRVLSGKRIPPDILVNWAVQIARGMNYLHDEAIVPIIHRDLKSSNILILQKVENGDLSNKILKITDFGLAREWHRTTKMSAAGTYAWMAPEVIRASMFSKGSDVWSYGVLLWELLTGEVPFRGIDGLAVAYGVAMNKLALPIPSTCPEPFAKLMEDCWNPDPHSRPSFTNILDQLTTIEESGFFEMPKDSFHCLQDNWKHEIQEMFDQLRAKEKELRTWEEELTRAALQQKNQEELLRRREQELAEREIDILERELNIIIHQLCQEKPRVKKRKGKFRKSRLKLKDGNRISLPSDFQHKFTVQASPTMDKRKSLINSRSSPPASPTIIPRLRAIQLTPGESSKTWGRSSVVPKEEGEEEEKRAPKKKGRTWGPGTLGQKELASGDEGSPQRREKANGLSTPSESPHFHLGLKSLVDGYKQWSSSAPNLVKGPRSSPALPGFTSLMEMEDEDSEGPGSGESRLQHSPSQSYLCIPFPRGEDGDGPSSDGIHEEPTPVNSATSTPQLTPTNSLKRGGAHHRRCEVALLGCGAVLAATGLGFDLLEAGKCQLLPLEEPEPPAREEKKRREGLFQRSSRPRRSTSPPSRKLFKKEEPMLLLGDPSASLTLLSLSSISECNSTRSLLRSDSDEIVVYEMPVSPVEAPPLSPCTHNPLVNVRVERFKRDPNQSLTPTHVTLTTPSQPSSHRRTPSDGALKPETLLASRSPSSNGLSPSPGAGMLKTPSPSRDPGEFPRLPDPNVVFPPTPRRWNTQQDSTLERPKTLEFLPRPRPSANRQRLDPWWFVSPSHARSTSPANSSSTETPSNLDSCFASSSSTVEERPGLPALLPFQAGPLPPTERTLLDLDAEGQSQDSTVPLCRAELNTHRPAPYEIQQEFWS
Numbers only, in %.

> print(dat)
                      smiles.representation                              study.system  reported.result
1  O=C(c1cc2cc(O)ccc2[nH]1)c1cc2cc(O)ccc2[nH]1  Mitogen-activated protein kinase kinase kinase 9 (Homo sapiens) (UniProt P80192)                4
2  O=C1Nc2ccc(Cl)cc2/C1=C/c1cc(Cl)c(O)c(Cl)c1  Mitogen-activated protein kinase kinase kinase 9 (Homo sapiens) (UniProt P80192)               18
3         COc1cc2ncnc(Nc3cccc(Cl)c3)c2cc1OC  Mitogen-activated protein kinase kinase kinase 9 (Homo sapiens) (UniProt P80192)               21
4  COc1cc2nccc(Oc3ccc(NC(=O)Nc4cc(C)on4)c(Cl)c3)c2cc1OC  Mitogen-activated protein kinase kinase kinase 9 (Homo sapiens) (UniProt P80192)               61
5  CC(C)(C)c1nc2c3ccc(F)cc3c3c(=O)[nH]ccc3c2[nH]1  Mitogen-activated protein kinase kinase kinase 9 (Homo sapiens) (UniProt P80192)               21

# batch size: 8; output residual activity per entry
1. CN(C)S(=O)(=O)c1ccc2c(c1)/C(=C/c1cc3c([nH]1)CCCC3)C(=O)N2
2. Nc1n[nH]c2nc3ccccc3nc12
3. CC(C)c1nn(-c2c(Cl)cccc2Cl)c2nc(Cc3ccc(OCCO)cc3)[nH]c(=O)c12
4. CC(C)(C)n1nc(Cc2cccc3ccccc23)c2c(N)ncnc21
5. Cn1sc(=O)n(Cc2ccccc2)c1=O
6. CCCC(=O)Oc1ccc2[nH]c(C(=O)c3cc4ccccc4[nH]3)cc2c1
7. Nc1nc(Nc2ccc(S(N)(=O)=O)cc2)nn1C(=O)c1c(F)cccc1F
8. N#C/C(=C1/Nc2ccccc2S1)c1ccnc(NCCc2cccnc2)n1

1. 64
2. 41
3. 48
4. 18
5. 88
6. 88
7. 1
8. 9
